Ref: PubChem BioAssay (NCI)

system: PC-3 prostate; assay: NCI tumour cell line growth inhibition, 48 h
Please respond with reported TGI for every item in the list.

Provide the reported TGI of each entry below, same order.
1. NC1=NCC(CN2CCCC2)O1 (stereo not drawn)
2. CCOC(=O)C(=O)C(=O)NN(C)C1=NCCN1

# output
1: > 100 µM; 2: > 100 µM

# input Reported TGI, compound CCN(CC)c1nc(N(C)C)c2ccccc2n1 : ____
# output > 100 µM

====

Please respond with reported TGI for every item in the list.
system: UO-31 renal; test: NCI tumour cell line growth inhibition, 48 h

Provide the reported TGI of each entry below, same order.
1. C/C(=N\Nc1nc2ccccc2[nH]1)c1cc2ccccc2cn1
2. Cc1ccc(/C(O)=C/c2nc3ccc([N+](=O)[O-])cc3nc2/C=C(\O)c2ccc(C)cc2)cc1
3. Cc1ccc(C(C)C)cc1NC(=O)Nc1ccc([N+](=O)[O-])cc1

# output
1.38 µM
> 100 µM
5.79 µM

Provide the reported TGI of each entry below, same order.
1. C(/Cc1ccc2c(c1)OCO2)=N\NC1=NCCCN1
2. CC(NC(=O)c1ccccc1)(C(=O)O)C(=O)O
3. CCN(CC)c1ccc2cc(-c3nc4ccccc4c(=O)[nH]3)c(=N)oc2c1
4. CC1CC/C(=C\c2ccc(Cl)cc2)c2nc(N)c(C#N)c(-c3ccc(Cl)cc3)c21 (stereo not drawn)

# output
> 100 µM
> 100 µM
> 100 µM
> 100 µM
